Tested on: Plasmodium berghei
Assay: Antiplasmodial activity against Plasmodium berghei KBG-173 infected in mouse assessed as mouse without parasitemia at 240 mg/kg, sc bid for 3 days measured on day 31
Assay type: functional, organism-based
Parameters: dose 240 mg/kg
Activity calls are given as the source filed them. No cut-off for these calls is given here.
I would appreciate it if you answered using one of these outcomes: active, inactive

Request: Which result was noted for this molecule in the test: CC[C@H]1OC(=O)[C@H](C)[C@@H](O[C@H]2C[C@@](C)(OC)[C@@H](O)[C@H](C)O2)[C@H](C)[C@@H](O[C@@H]2O[C@H](C)C[C@H](N(C)C)[C@H]2O)[C@](C)(O)C[C@@H](C)CN(CCCN(CCC#N)C(=S)NCCCc2ccccc2)[C@H](C)[C@@H](O)[C@]1(C)O
Response: inactive

Request: // query: CC[C@H]1OC(=O)[C@H](C)[C@@H](O[C@H]2C[C@@](C)(OC)[C@@H](O)[C@H](C)O2)[C@H](C)[C@@H](O[C@@H]2O[C@H](C)C[C@H](N(C)C)[C@H]2O)[C@](C)(O)C[C@@H](C)CN(CCCNC(=O)NC(C)c2cccc3ccccc23)[C@H](C)[C@@H](O)[C@]1(C)O (stereo not given in full)
Response: inactive

Request: Same question, CC[C@H]1OC(=O)[C@H](C)[C@@H](O[C@H]2C[C@@](C)(OC)[C@@H](O)[C@H](C)O2)[C@H](C)[C@@H](O[C@@H]2O[C@H](C)C[C@H](N(C)C)[C@H]2O)[C@](C)(O)C[C@@H](C)CN(CCCNC(=O)Nc2ccc3ccccc3c2)[C@H](C)[C@@H](O)[C@]1(C)O this time
Response: inactive

Request: CC[C@H]1OC(=O)[C@H](C)[C@@H](O[C@H]2C[C@@](C)(OC)[C@@H](O)[C@H](C)O2)[C@H](C)[C@@H](O[C@@H]2O[C@H](C)C[C@H](N(C)C)[C@H]2O)[C@](C)(O)C[C@@H](C)CN(C)[C@H](C)[C@@H](O)[C@]1(C)O [AZITHROMYCIN]
Response: active

Request: CC[C@H]1OC(=O)[C@H](C)[C@@H](O[C@H]2C[C@@](C)(OC)[C@@H](O)[C@H](C)O2)[C@H](C)[C@@H](O[C@@H]2O[C@H](C)C[C@H](N(C)C)[C@H]2O)[C@](C)(O)C[C@@H](C)CN(CCCN(CCC#N)C(=O)NC(C)c2cccc3ccccc23)[C@H](C)[C@@H](O)[C@]1(C)O (stereo not given in full) , same question.
Response: inactive

Reference source: ChEMBL document CHEMBL1772969
